Reference source for all entries: PubChem BioAssay AID1919013

system: LG0703-F498-PDC complex spheroid growth; assay: Anticancer human tumor LG0703-F498-PDC patient-derived lung adenocarcinoma cell line growth inhibition [AhR]; conditions: second compound 10 µM; first compound 3.16 µM; hits give low values;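 also: luminescence taken as a proxy for viable cell amount; percent of DMSO vehicle control where 100% means growth equal to vehicle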
quantity: viability, T/C (%)

[
  {
    "compound": "COc1cccc2c1C(=O)c1c(O)c3c(c(O)c1C2=O)CC(O)(C(=O)CO)CC3OC1CC(N)C(O)C(C)O1 (configuration not stated) + Cc1cncc(-c2nc(NCCc3c[nH]c4ccccc34)c3ncn(C(C)C)c3n2)c1",
    "quantity": "viability, T/C",
    "unit": "%",
    "recorded number": 0.31
  },
  {
    "compound": "O=C(c1cc(Cc2n[nH]c(=O)c3ccccc23)ccc1F)N1CCN(C(=O)C2CC2)CC1 + Cc1ccccc1N=Nc1ccc(NC(=O)c2ccnn2C)c(C)c1",
    "quantity": "viability, T/C",
    "unit": "%",
    "recorded number": 72.3
  },
  {
    "compound": "COc1ccc([C@@H](O)c2cc(-c3ncnc4cc(N5CCOCC5)ccc34)c(F)cc2Cl)nn1 + CC(CO)NC(=O)c1cc(-c2ccc(Cl)cc2)nn(-c2cnn(C)c2)c1=O",
    "quantity": "viability, T/C",
    "unit": "%",
    "recorded number": 48.5
  },
  {
    "compound": "COc1cccc2c1C(=O)c1c(O)c3c(c(O)c1C2=O)CC(O)(C(=O)CO)CC3OC1CC(N)C(O)C(C)O1 (configuration not stated) + Cc1ccccc1N=Nc1ccc(NC(=O)c2ccnn2C)c(C)c1",
    "quantity": "viability, T/C",
    "unit": "%",
    "recorded number": 5.43
  },
  {
    "compound": "CC(C)c1c(-c2ccccc2)nc2c(C#N)c[nH]n2c1=O + Cc1cncc(-c2nc(NCCc3c[nH]c4ccccc34)c3ncn(C(C)C)c3n2)c1",
    "quantity": "viability, T/C",
    "unit": "%",
    "recorded number": 0.57
  },
  {
    "compound": "Nc1ccn(C2OC(CO)C(O)C2(F)F)c(=O)n1 (configuration not stated) + Cc1ccccc1N=Nc1ccc(NC(=O)c2ccnn2C)c(C)c1",
    "quantity": "viability, T/C",
    "unit": "%",
    "recorded number": 36.9
  },
  {
    "compound": "O=C(C=Cc1cccc(S(=O)(=O)Nc2ccccc2)c1)NO + Cc1ccccc1N=Nc1ccc(NC(=O)c2ccnn2C)c(C)c1",
    "quantity": "viability, T/C",
    "unit": "%",
    "recorded number": 25.9
  },
  {
    "compound": "CC(C)c1c(-c2ccccc2)nc2c(C#N)c[nH]n2c1=O + Cc1ccccc1N=Nc1ccc(NC(=O)c2ccnn2C)c(C)c1",
    "quantity": "viability, T/C",
    "unit": "%",
    "recorded number": 81.7
  },
  {
    "compound": "NS(=O)(=O)OCC1CC(n2ccc3c(NC4CCc5ccccc54)ncnc32)CC1O (configuration not stated) + Cc1cncc(-c2nc(NCCc3c[nH]c4ccccc34)c3ncn(C(C)C)c3n2)c1",
    "quantity": "viability, T/C",
    "unit": "%",
    "recorded number": 6.79
  },
  {
    "compound": "CC1(C)CCC(CN2CCN(c3ccc(C(=O)NS(=O)(=O)c4ccc(NCC5CCOCC5)c([N+](=O)[O-])c4)c(Oc4cnc5[nH]ccc5c4)c3)CC2)=C(c2ccc(Cl)cc2)C1 + Cc1cncc(-c2nc(NCCc3c[nH]c4ccccc34)c3ncn(C(C)C)c3n2)c1",
    "quantity": "viability, T/C",
    "unit": "%",
    "recorded number": 1.72
  },
  {
    "compound": "O=C(C=Cc1cccc(S(=O)(=O)Nc2ccccc2)c1)NO + CC(CO)NC(=O)c1cc(-c2ccc(Cl)cc2)nn(-c2cnn(C)c2)c1=O",
    "quantity": "viability, T/C",
    "unit": "%",
    "recorded number": 8.76
  },
  {
    "compound": "CC1(C)CCC(CN2CCN(c3ccc(C(=O)NS(=O)(=O)c4ccc(NCC5CCOCC5)c([N+](=O)[O-])c4)c(Oc4cnc5[nH]ccc5c4)c3)CC2)=C(c2ccc(Cl)cc2)C1 + CC(CO)NC(=O)c1cc(-c2ccc(Cl)cc2)nn(-c2cnn(C)c2)c1=O",
    "quantity": "viability, T/C",
    "unit": "%",
    "recorded number": 73.2
  }
]
